- System: Mus musculus
- experimental.details: Anticonvulsant activity of compound, administered perorally in mice was evaluated using maximal electroshock seizure model
- Type: functional
- conditions.used: po
property.label: ED50 (mg/kg)
Numbers only, in mg/kg.

compound	recorded.number
CC(=O)N1CC(C)c2cc3c(cc2C(c2ccc(N)cc2)=N1)OCO3 (configuration not stated)	69.3
CC1=NN=C(c2ccc(N)cc2)c2cc3c(cc2C1)OCO3	37.4

Your task in this section: give ED50 for each listed record.
1. CC(=O)N1N=C(c2ccc(N)cc2)c2cc3c(cc2C[C@H]1C)OCO3
2. CNC(=O)N1CC(C)c2cc3c(cc2C(c2ccc(N)cc2)=N1)OCO3 (configuration not stated)

1. 8.6
2. 48.8

====

- System: Mus musculus
- experimental.details: Anticonvulsant activity of compound, administered perorally in mice was evaluated using maximal electroshock seizure model
- Assay type: functional
- conditions.used: po
Exercise: state measured ED50 for each of the molecules provided.

Your task in this section: give ED50 for each listed record.
1. CCCCC(=O)N1CC(C)c2cc3c(cc2C(c2ccc(N)cc2)=N1)OCO3 (stereo not drawn)
2. CC1CN(c2ccccn2)N=C(c2ccc(N)cc2)c2cc3c(cc21)OCO3 (stereo not drawn)
3. CC1CN(C(=O)C2CC2)N=C(c2ccc(N)cc2)c2cc3c(cc21)OCO3 (stereo not drawn)

["> 100 mg/kg", "> 100 mg/kg", "> 100 mg/kg"]
